Below is a list of entries, each paired with its recorded inhibition value.
- targetOrSystem: Toxin B (Clostridioides difficile) (UniProt P18177)
- Sequence (P18177 whole entry, looked up): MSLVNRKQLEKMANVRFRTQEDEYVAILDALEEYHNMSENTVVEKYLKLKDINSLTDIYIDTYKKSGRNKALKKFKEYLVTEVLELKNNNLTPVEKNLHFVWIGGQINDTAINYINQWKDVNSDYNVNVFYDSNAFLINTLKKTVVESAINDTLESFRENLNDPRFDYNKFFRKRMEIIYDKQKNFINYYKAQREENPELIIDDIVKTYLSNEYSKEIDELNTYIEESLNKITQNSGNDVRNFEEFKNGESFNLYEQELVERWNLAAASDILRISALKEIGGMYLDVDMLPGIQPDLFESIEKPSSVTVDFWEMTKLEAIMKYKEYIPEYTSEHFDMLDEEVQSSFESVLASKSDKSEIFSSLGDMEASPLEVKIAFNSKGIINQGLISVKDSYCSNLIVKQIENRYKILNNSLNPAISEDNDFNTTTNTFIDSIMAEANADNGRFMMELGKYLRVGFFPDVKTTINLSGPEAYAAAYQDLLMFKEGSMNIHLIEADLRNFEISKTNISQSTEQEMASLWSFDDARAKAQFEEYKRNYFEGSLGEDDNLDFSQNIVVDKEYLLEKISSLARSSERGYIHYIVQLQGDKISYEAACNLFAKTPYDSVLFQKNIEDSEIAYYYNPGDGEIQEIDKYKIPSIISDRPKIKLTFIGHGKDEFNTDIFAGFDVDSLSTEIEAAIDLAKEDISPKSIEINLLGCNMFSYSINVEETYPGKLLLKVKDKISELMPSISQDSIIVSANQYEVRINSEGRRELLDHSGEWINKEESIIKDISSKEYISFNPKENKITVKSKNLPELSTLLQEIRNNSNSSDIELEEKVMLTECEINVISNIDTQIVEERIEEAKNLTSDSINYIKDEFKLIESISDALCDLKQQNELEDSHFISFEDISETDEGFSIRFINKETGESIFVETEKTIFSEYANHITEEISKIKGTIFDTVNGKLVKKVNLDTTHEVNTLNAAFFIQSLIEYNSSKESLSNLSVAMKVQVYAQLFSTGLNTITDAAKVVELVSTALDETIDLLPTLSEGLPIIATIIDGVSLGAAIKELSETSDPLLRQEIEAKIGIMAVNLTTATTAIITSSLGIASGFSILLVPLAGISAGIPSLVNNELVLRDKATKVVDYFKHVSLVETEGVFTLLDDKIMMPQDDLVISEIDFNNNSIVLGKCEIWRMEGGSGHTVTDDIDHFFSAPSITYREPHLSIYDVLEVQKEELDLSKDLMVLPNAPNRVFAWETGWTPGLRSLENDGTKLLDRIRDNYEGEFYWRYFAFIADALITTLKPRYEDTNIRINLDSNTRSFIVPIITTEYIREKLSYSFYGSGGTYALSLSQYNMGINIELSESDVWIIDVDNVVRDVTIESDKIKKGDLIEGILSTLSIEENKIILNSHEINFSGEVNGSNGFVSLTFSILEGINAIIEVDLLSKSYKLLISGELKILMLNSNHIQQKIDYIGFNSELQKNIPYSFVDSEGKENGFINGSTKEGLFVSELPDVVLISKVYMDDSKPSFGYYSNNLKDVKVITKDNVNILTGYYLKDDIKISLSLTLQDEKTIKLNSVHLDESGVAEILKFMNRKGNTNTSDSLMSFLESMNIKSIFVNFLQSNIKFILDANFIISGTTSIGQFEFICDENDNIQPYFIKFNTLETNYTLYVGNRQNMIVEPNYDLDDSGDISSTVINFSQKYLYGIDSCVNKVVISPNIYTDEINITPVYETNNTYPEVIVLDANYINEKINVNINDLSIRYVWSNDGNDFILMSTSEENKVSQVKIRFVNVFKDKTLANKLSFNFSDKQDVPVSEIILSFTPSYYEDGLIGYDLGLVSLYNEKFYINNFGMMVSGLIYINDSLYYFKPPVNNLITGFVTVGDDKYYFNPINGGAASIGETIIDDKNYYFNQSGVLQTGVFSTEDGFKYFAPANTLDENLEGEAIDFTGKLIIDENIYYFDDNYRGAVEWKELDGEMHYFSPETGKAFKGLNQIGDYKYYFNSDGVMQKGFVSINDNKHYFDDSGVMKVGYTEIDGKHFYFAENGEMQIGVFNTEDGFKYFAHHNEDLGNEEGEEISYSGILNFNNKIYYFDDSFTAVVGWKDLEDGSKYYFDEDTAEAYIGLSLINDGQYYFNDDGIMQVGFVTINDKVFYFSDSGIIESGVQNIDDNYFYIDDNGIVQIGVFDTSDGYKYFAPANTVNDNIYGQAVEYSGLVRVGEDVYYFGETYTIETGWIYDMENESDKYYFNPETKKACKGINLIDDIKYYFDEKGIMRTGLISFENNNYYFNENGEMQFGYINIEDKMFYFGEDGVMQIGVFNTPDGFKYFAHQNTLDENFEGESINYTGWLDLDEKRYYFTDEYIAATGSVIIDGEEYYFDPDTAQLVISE
- experimentNotes: TcdB glycohydrolase inhibitors, primary screen, biochemical, single point, plate reader (AID 652162)
- assayConditions: TcdB glycohydrolase enzymatic assay, at 9.99 µM, hits give high values
In all, about 350,000 compounds went through this assay and about 840 (0.24%) were called active. Shown is part of a subset that was picked to be rich in actives.
Response body: numeric value in %, unit text excluded.

Below: 6 compounds and their reported inhibition.
>>> df
                                  cpdsmiles  readoutvalue
0  C/C=C/c1ccc([C@@H]2[C@@H](CO)N(C(=O)c3ccccc3)C23CN(C(C)=O)C3)cc1          1.41
1  C[C@@H]1CN([C@@H](C)CO)C(=O)c2cc(-c3ccc(F)cc3)cnc2O[C@@H]1CN(C)Cc1ccc(C(=O)O)cc1         -1.74
2  CNC[C@H]1Oc2ncc(-c3ccccc3C)cc2C(=O)N([C@@H](C)CO)C[C@@H]1C         0.537
3  Cc1noc(C)c1S(=O)(=O)Nc1ccc2c(c1)C(=O)N([C@@H](C)CO)C[C@H](C)[C@@H](CN(C)C)OCCCC[C@@H](C)O2         -1.17
4  O=C(Nc1cccc(Cl)c1)N[C@H]1CC[C@H](CCNC(=O)C2CCOCC2)O[C@H]1CO         0.073
5    COc1ccccc1N1CC(O)=C(c2nc3ccccc3s2)C1=N          14.9

Which inhibition is reported with Toxin B (Clostridioides difficile) (UniProt P18177) for this entry: CO[C@H]1CN(C)C(=O)c2cc(NS(=O)(=O)CC(F)(F)F)ccc2OC[C@H](C)N(C(=O)c2ccc3c(c2)OCO3)C[C@H]1C ?
0.021

Which inhibition is reported with Toxin B (Clostridioides difficile) (UniProt P18177) for this entry: O=C(C[C@@H]1C[C@@H]2c3cc(NC(=O)C4CCOCC4)ccc3O[C@@H]2[C@H](CO)O1)NCc1ccncc1 ?
0.039

Which inhibition is reported with Toxin B (Clostridioides difficile) (UniProt P18177) for this entry: CO[C@@H]1CN(C)C(=O)c2cc(NC(C)=O)ccc2OC[C@H](C)N(Cc2ccccc2F)C[C@@H]1C ?
-0.886

Which inhibition is reported with Toxin B (Clostridioides difficile) (UniProt P18177) for this entry: C[C@H]1CN([C@@H](C)CO)C(=O)Cc2cc(NC(=O)Cn3cnnn3)ccc2O[C@H]1CN(C)CC1CC1 ?
0.02

Which inhibition is reported with Toxin B (Clostridioides difficile) (UniProt P18177) for this entry: CCCC(=O)Nc1ccc2c(c1)C(=O)N(C)C[C@H](OC)[C@H](C)CN(CCc1ccccc1)[C@H](C)CO2 ?
0.195

Which inhibition is reported with Toxin B (Clostridioides difficile) (UniProt P18177) for this entry: COc1ccccc1NC(=O)N1CC(=O)N2[C@H](C1)[C@H](c1ccc(C#Cc3ccccc3)cc1)[C@@H]2CO ?
0.309

Which inhibition is reported with Toxin B (Clostridioides difficile) (UniProt P18177) for this entry: COc1ccccc1CNC(=O)C[C@@H]1CC[C@H]2[C@@H](COc3ccc(NS(=O)(=O)c4ccc(C)cc4)cc3C(=O)N2C)O1 ?
0.867

* * *

- targetOrSystem: Toxin B (Clostridioides difficile)
- experimentNotes: TcdB glycohydrolase inhibitors, primary screen, biochemical, single point, plate reader (AID 652162)
- assayConditions: TcdB glycohydrolase enzymatic assay, at 9.99 µM
Among all 350,000 compounds or so, about 840 (0.24%) were called active. Cut-off read from the data, not from the text of the source: active = inhibition above about 10%; inactive = the rest. Only a selection was taken, and actives are over-represented in it overall.
Result category, one only: active, inactive

Below are worked cases with known answers.
                                  cpdsmiles  classname
0  C[C@@H]1CCCCO[C@@H](CN(C)C(=O)NC2CCCCC2)[C@H](C)CN([C@H](C)CO)C(=O)c2cc(NS(=O)(=O)c3ccc(Cl)cc3)ccc2O1   inactive
1  O=C(c1ccc(N2CCOCC2)c([N+](=O)[O-])c1)N1CCN(c2ccccc2F)CC1     active
2  COC(=O)[C@@H]1[C@@H](CO)[C@@H]2Cn3c(ccc(-c4ccc(OC)cc4)c3=O)[C@@H]2N1C   inactive
3  O=C(OCC(=O)N1CCOCC1)c1ccc(N2CCOCC2)c([N+](=O)[O-])c1   inactive
4  C[C@@H]1CN([C@H](C)CO)C(=O)CCCn2cc(nn2)CO[C@@H]1CN(C)C(=O)Nc1ccc(-c2cccs2)cc1   inactive

Call for entry CC1CCN(C(=O)/C(=C\c2ccccc2)NC(=O)c2ccccc2)CC1 :
inactive

Call for entry O=C(N/C(=C\c1ccc(O)cc1)C(=O)N1CCCCC1)c1ccccc1 :
active

Call for entry COCCNC(=O)[C@@H]1[C@@H](CO)[C@@H]2Cn3c(ccc(-c4ccccc4F)c3=O)[C@@H]2N1C(=O)C1CC1 :
inactive

* * *

- targetOrSystem: Toxin B (Clostridioides difficile)
- experimentNotes: TcdB glycohydrolase inhibitors, primary screen, biochemical, single point, plate reader (AID 652162)
- assayConditions: TcdB glycohydrolase enzymatic assay, at 9.99 µM
About 840 (0.24%) of roughly 350,000 compounds were called active. Rule as the data show it: active = inhibition above about 10%; inactive = the rest. The sample as a whole holds a higher share of actives than the screen did.
Result category, one only: class 1 = active, class 0 = inactive

>>> df
                                  cpdsmiles  classname
0  CO[C@H]1CN(C)C(=O)c2cc(NC(=O)c3cc(C)on3)ccc2OC[C@@H](C)N(C(C)=O)C[C@H]1C    class 0
1  Cc1noc(C)c1S(=O)(=O)N(C)C[C@@H]1Oc2c(NS(=O)(=O)c3cn(C)cn3)cccc2C(=O)N([C@H](C)CO)C[C@@H]1C    class 0
2                O=C(NNC(=O)C1CCC1)c1ccccc1    class 0

Consider the additional compound presented here.
Call for entry O=C(c1ccncc1)N1CC(=O)N2[C@H](CO)[C@H](c3ccc(-c4ccccc4F)cc3)[C@@H]2C1 :
class 0

* * *

- targetOrSystem: Toxin B (Clostridioides difficile)
- experimentNotes: TcdB glycohydrolase inhibitors, primary screen, biochemical, single point, plate reader (AID 652162)
- assayConditions: TcdB glycohydrolase enzymatic assay, at 9.99 µM, hits give high values
Among all 350,000 compounds or so, about 840 (0.24%) were called active. This excerpt belongs to a sample that is enriched for actives.
assayMetric: inhibition (%)
Response body: numeric value in %, unit text excluded.

Below: 2 molecules and their reported inhibition.
>>> df
                                   molecule  readoutvalue
0  COCCN(Cc1nc(-c2ccc(C(F)(F)F)cc2)no1)C(C)C          1.49
1  CCC(CC)C(=O)N1CC(=O)Nc2ccc(Br)cc2C1c1ccccc1 (stereo not given)          3.15

Can you look up the measured inhibition of COC(=O)CN1C(C)=Nc2ccc(Br)cc2C1c1ccccc1 (stereo not given) for me?
55.6

Can you look up the measured inhibition of COCCN(C(=O)C(C)C)c1nnc(-c2ccc(C(C)(C)C)cc2)s1 for me?
10.1

Can you look up the measured inhibition of O=C(Cc1ccccn1)N[C@H]1CC[C@H](CCn2cc(-c3ccc(F)cc3)nn2)O[C@H]1CO for me?
-7.26

* * *

- targetOrSystem: Toxin B (Clostridioides difficile)
- experimentNotes: TcdB glycohydrolase inhibitors, primary screen, biochemical, single point, plate reader (AID 652162)
- assayConditions: TcdB glycohydrolase enzymatic assay, at 9.99 µM, hits give high values
The campaign covered roughly 350,000 compounds. About 840 (0.24%) were called active. The full list was thinned out, with actives kept by preference.
assayMetric: inhibition (%)
Response body: numeric value in %, unit text excluded.

Below: 3 compounds and their reported inhibition.
>>> df
                                   compound  unitdescriptor  readoutvalue
0  C[C@H]1CN([C@@H](C)CO)S(=O)(=O)c2ccc(-c3ccccc3F)cc2O[C@H]1CN(C)C(=O)C1CC1               %        -0.346
1  CCOC(=O)C1CCN(Cc2c(C(=O)N3CCOCC3)nc3c(C)cccn23)CC1               %          1.15
2  Cc1noc(C)c1NC(=O)N(C)C[C@@H]1OCCCC[C@H](C)Oc2ccc(NC(=O)NC3CCCCC3)cc2C(=O)N([C@H](C)CO)C[C@H]1C               %          1.84

Which inhibition is reported with Toxin B (Clostridioides difficile) for this entry: O=C(C[C@@H]1C[C@@H]2c3cc(NS(=O)(=O)c4ccc(F)cc4)ccc3O[C@@H]2[C@H](CO)O1)NCc1cc(F)ccc1F ?
-0.254

Which inhibition is reported with Toxin B (Clostridioides difficile) for this entry: C[C@H]1CN([C@@H](C)CO)C(=O)c2cc(NS(=O)(=O)c3ccccc3)ccc2O[C@@H]1CN(C)C(=O)NC1CCCCC1 ?
3.22

Which inhibition is reported with Toxin B (Clostridioides difficile) for this entry: COCC(=O)Nc1ccc2c(c1)C(=O)N(C)C[C@H](OC)[C@@H](C)CN(C(=O)c1cnccn1)[C@H](C)CO2 ?
0.644

Values compiled from PubChem BioAssay AID652162.
